target_desc: PAK1 (Homo sapiens, UniProt Q13153)
Sequence (Q13153 whole entry): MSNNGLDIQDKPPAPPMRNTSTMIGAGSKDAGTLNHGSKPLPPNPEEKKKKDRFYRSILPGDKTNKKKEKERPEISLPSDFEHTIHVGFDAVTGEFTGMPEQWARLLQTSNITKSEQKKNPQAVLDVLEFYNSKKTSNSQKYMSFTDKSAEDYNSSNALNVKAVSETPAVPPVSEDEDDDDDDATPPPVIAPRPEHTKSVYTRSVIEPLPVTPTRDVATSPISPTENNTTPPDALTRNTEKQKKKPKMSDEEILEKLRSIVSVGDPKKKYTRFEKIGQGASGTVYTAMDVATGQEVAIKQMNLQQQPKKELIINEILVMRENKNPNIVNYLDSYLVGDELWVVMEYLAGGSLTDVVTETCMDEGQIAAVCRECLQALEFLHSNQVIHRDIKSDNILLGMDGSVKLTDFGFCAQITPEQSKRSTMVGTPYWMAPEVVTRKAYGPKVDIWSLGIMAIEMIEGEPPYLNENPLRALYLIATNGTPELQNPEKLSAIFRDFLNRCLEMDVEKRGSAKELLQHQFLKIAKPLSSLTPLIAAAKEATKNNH
assay_procedure: Additional in vitro PAK1 inhibition assay at ATP 10 uM and 1 mM
Format: biochemical
condition_set: 1 mM ATP; read-out: PAK1 IC50 (1 mM ATP)
pIC50: −log10 of the molar value.
quantity: pIC50

> print(dat)
                                smiles.data           val
1  Cc1nc(-c2ccc(-c3cc4cnc(NC5CCOCC5)nc4n(CC(=O)NCCCN)c3=O)c(Cl)c2)no1  5.30 to 6.30
2  Cc1nc(-c2ccc(-c3cc4cnc(NC5CCOCC5)nc4n(CC4CCN(C)CC4)c3=O)c(Cl)c2)no1        ≤ 5.30
3  CCn1c(=O)c(-c2ccc(-c3noc(C)n3)cc2Cl)cc2cnc(N[C@H]3CC[C@H](N4CCN(C)CC4)CC3)nc21        ≤ 5.30
4  Cc1nc(-c2ccc(-c3cc4cnc(NC5CCOCC5)nc4n(Cc4ccccc4)c3=O)c(Cl)c2)no1        ≤ 5.30
